B1: SMTNL2 (parent)
chain: QKNFELAFTMAENLANCERLIEVE

Variants of: B1
assayName: protein stability index of a GFP-peptide fusion (GPS, HEK-293T) (PSI 1-6); higher = more stable;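 also: lentivirally expressed fusions sorted by FACS into six bins by GFP to DsRed ratio, PSI derived from sequencing read proportions per bin multiplied by bin number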
conditionParameters: c terminus: a fixed tail appended
observable: protein stability index
No unit in the answer, only the number.

[[record]]
variantstring = "E12G"
endpointvalue = 1.98

[[record]]
variantstring = "N13K"
endpointvalue = 1.95

[[record]]
variantstring = "F4Y"
endpointvalue = 1.98

[[record]]
variantstring = "E5H"
endpointvalue = 1.96


We next turn to a different variant, shown below.
Field request: protein stability index | item: E24T
1.95
